Quick reference for folding stability dG among some variants
B1: r4_43_TrROS_Hall (parent)
chain: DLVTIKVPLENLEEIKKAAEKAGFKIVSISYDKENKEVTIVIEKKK

Variants of: B1
Assay: folding stability dG (cDNA display proteolysis); higher = more stable
Conditions: PBS, room temperature

# mutant designation, folding stability dG, kcal/mol
measured = [
    ("K21P", 2.74),
    ("E43P", 2.34),
    ("S30H", 3.68),
    ("A18P", 1.8),
    ("L2F", 3.76),
    ("E37T", 3.88),
    ("K6R", 3.84),
    ("I42T", 3.03),
    ("V27I", 3.57),
    ("V7Q", 3.04),
    ("T4M", 3.65),
    ("K16T", 3.88),
    ("N35S", 3.55),
    ("N11L", 3.67),
    ("K45F", 4.41),
    ("Y31P", 2.97),
    ("A19H", 3.45),
    ("E37P", 2.62),
    ("E10Q", 3.52),
    ("E14S", 3.7),
    ("K17S", 3.72),
    ("K16V", 3.6),
    ("I15G", 3.06),
    ("T39I", 3.66),
    ("I29K", 2.44),
    ("S30V", 3.96),
    ("I26P", 1.96),
]
